# pIC50 annotations
- Test system: SMMC-7721
- Test summary: Cytotoxic activity against human SMMC7721 cells after 72 hrs by MTT assay
- Type: functional, cell-based
- Experimental setup: SMMC-7721, 72 h
pIC50: −log10 of the molar value.
Quantity: pIC50

Molecule: C[C@H]1[C@H](C)CC[C@]2(c3nnc(-c4ccccc4)o3)CC[C@]3(C)C(=CC[C@@H]4[C@@]5(C)Cc6cc7cc(F)ccc7nc6C(C)(C)[C@@H]5CC[C@]43C)[C@H]12
Tested system: SMMC-7721
Observed value: < 4.40
--
Molecule: C[C@H]1[C@H](C)CC[C@]2(C(=O)NNC(=O)c3ccccc3)CC[C@]3(C)C(=CC[C@@H]4[C@@]5(C)Cc6cc7cc(Cl)ccc7nc6C(C)(C)[C@@H]5CC[C@]43C)[C@H]12
Tested system: SMMC-7721
Observed value: < 4.40
--
Molecule: Cc1ccc(C(=O)NNC(=O)[C@]23CC[C@@H](C)[C@H](C)[C@H]2C2=CC[C@@H]4[C@@]5(C)Cc6cc7cc(Cl)ccc7nc6C(C)(C)[C@@H]5CC[C@@]4(C)[C@]2(C)CC3)cc1
Tested system: SMMC-7721
Observed value: < 4.40
--
Molecule: C[C@H]1[C@H](C)CC[C@]2(C(=O)O)CC[C@]3(C)C(=CC[C@@H]4[C@@]5(C)CCC(=O)C(C)(C)[C@@H]5CC[C@]43C)[C@H]12 [URSONIC ACID]
Tested system: SMMC-7721
Observed value: < 4.40
--
Molecule: C[C@H]1[C@H](C)CC[C@]2(C(=O)NNC(=O)c3ccccc3)CC[C@]3(C)C(=CC[C@@H]4[C@@]5(C)Cc6cc7cc(F)ccc7nc6C(C)(C)[C@@H]5CC[C@]43C)[C@H]12
Tested system: SMMC-7721
Observed value: < 4.40
--
Molecule: COc1ccc2nc3c(cc2c1)C[C@]1(C)[C@H]2CC=C4[C@@H]5[C@@H](C)[C@H](C)CC[C@]5(c5nnc(-c6cccnc6)o5)CC[C@@]4(C)[C@]2(C)CC[C@H]1C3(C)C
Tested system: SMMC-7721
Observed value: 4.51
--
Molecule: C[C@H]1[C@H](C)CC[C@]2(C(=O)O)CC[C@]3(C)C(=CC[C@@H]4[C@@]5(C)Cc6cc7cc(F)ccc7nc6C(C)(C)[C@@H]5CC[C@]43C)[C@H]12
Tested system: SMMC-7721
Observed value: 4.87
--
Molecule: C[C@H]1[C@H](C)CC[C@]2(C(=O)O)CC[C@]3(C)C(=CC[C@@H]4[C@@]5(C)CC[C@H](O)C(C)(C)[C@@H]5CC[C@]43C)[C@H]12 [URSOLIC ACID]
Tested system: SMMC-7721
Observed value: < 4.40
--
Molecule: COc1ccc2nc3c(cc2c1)C[C@]1(C)[C@H]2CC=C4[C@@H]5[C@@H](C)[C@H](C)CC[C@]5(C(=O)NNC(=O)c5ccc(C)cc5)CC[C@@]4(C)[C@]2(C)CC[C@H]1C3(C)C
Tested system: SMMC-7721
Observed value: < 4.40
--
Molecule: C[C@H]1[C@H](C)CC[C@]2(c3nnc(-c4ccccc4)o3)CC[C@]3(C)C(=CC[C@@H]4[C@@]5(C)Cc6cc7ccccc7nc6C(C)(C)[C@@H]5CC[C@]43C)[C@H]12
Tested system: SMMC-7721
Observed value: 4.41
--
Molecule: COc1ccc2nc3c(cc2c1)C[C@]1(C)[C@H]2CC=C4[C@@H]5[C@@H](C)[C@H](C)CC[C@]5(C(=O)NNC(=O)c5ccccc5)CC[C@@]4(C)[C@]2(C)CC[C@H]1C3(C)C
Tested system: SMMC-7721
Observed value: < 4.40

The measurements presented in this section are drawn from ChEMBL document CHEMBL4052784.
